The entries below are paired with their reported fold change of affinity.
Target: T1, Human CD3eg linker (human)
T1 construct: Single-chain construct; also called recombinant human CD3
T1 chain: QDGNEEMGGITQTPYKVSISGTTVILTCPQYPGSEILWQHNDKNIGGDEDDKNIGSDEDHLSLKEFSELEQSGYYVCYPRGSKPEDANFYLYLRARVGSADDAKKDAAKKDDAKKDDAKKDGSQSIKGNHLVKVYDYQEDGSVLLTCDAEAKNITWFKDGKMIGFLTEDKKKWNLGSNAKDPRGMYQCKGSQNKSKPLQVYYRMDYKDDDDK
Test: SPR; fold vs parent H183/L072
Write the quantity with the unit trailing the number.

Query H183/L072 VL S52D (antibody, name in Kabat numbering, V domains shown) VH: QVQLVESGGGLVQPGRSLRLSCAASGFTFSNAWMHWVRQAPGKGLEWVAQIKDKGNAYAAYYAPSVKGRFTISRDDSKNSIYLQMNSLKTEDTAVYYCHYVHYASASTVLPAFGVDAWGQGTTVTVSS VL: DIVMTQSPLSLPVTPGEPASISCQASQELVHMNRNTYLHWYQQKPGQAPRLLIYKVDNRFPGVPDRFSGSGSGTDFTLKISRVEAEDVGVYYCAQGTSVPFTFGQGTKLEIK yields fold change of affinity of 1 fold

Query H183/L072 VL P95S (antibody, name in Kabat numbering, V domains shown) VH: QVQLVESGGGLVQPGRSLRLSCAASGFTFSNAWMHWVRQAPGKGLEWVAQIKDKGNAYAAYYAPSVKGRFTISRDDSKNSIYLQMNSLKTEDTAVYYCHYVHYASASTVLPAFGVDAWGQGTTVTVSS VL: DIVMTQSPLSLPVTPGEPASISCQASQELVHMNRNTYLHWYQQKPGQAPRLLIYKVSNRFPGVPDRFSGSGSGTDFTLKISRVEAEDVGVYYCAQGTSVSFTFGQGTKLEIK yields fold change of affinity of 0 fold

Query H183/L072 VL T31G (antibody, name in Kabat numbering, V domains shown) VH: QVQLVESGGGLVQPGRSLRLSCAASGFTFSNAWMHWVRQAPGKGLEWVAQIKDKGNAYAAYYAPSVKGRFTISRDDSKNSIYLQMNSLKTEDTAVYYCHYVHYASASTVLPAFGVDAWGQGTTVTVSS VL: DIVMTQSPLSLPVTPGEPASISCQASQELVHMNRNGYLHWYQQKPGQAPRLLIYKVSNRFPGVPDRFSGSGSGTDFTLKISRVEAEDVGVYYCAQGTSVPFTFGQGTKLEIK yields fold change of affinity of 0 fold

Query H183/L072 VL S52I (antibody, name in Kabat numbering, V domains shown) VH: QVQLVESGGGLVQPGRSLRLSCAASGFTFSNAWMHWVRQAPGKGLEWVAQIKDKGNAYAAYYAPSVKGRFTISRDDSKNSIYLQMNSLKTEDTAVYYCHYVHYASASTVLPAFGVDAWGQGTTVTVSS VL: DIVMTQSPLSLPVTPGEPASISCQASQELVHMNRNTYLHWYQQKPGQAPRLLIYKVINRFPGVPDRFSGSGSGTDFTLKISRVEAEDVGVYYCAQGTSVPFTFGQGTKLEIK yields fold change of affinity of 1.5 fold

Query H183/L072 VL V27cH (antibody, name in Kabat numbering, V domains shown) VH: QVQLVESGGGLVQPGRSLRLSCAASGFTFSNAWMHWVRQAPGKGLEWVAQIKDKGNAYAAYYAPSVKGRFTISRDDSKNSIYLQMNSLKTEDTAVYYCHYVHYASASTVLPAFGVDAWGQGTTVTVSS VL: DIVMTQSPLSLPVTPGEPASISCQASQELHHMNRNTYLHWYQQKPGQAPRLLIYKVSNRFPGVPDRFSGSGSGTDFTLKISRVEAEDVGVYYCAQGTSVPFTFGQGTKLEIK yields fold change of affinity of 0.3 fold
